# System: A549 NSCLC
# Experiment: NCI tumour cell line growth inhibition, 48 h; in the data active = GI50 below about 0.43 µM; inactive = the rest
Please reply with one of these outcomes: YES = active, NO = inactive

Field: outcome | Entry: "N#CC(C#N)=Cc1ccc(-c2ccc(-c3nc4ccccc4o3)cc2)o1" NO

Further, for "CN(NC(=O)CC(=O)NN(C)C(=S)c1ccc(Cl)cc1)C(=S)c1ccc(Cl)cc1" ? NO

Next compound up: "COc1cccc(Nc2nccc(Nc3ccc4[nH]ncc4c3)n2)c1" NO

Another compound to look at: "CON" NO

Same for C[C@@H](Oc1cc(-c2cnn(C3CC4(CCCNC4)C3)c2)cnc1N)c1c(Cl)ccc(F)c1Cl (stereo not given in full) NO

Subsequent entry: "CS[C@@]1(C(=O)Nc2ccc3[nH]nc(-c4ccc(OC(C)C)nc4)c3c2)CCN(CC(=O)N2CC=C(c3ccc(-c4ncn(C)n4)cc3)CC2)C1" NO

Can you handle CCCCCCC1N=C(N)N=C(N)N1c1ccc(Cl)cc1 (stereo not given) next? NO

Item: "CCOC(=O)C(Cc1ccc(OC)cc1)C(=O)OCC" NO

Next compound: "CNCCOc1nc2c3cnccc3cc(-c3cc(OC)c(OC)c(OC)c3)c2c2ccncc12" YES

Next: O=C(Nc1ccc(S(=O)(=O)NC2CCCCCC2)cc1)C(c1ccccc1)S(=O)(=O)c1ccc(F)cc1 (stereo not given) NO

Then Cc1cc2c(C(C)C)c(O)c(O)c(C=O)c2c(O)c1-c1c(C)cc2c(C(C)C)c(O)c(O)c(C=O)c2c1O (tested in a mixture with another compound) ? NO

Same question, "N#Cc1c(Oc2ccc(F)c(NC(=O)Cc3cccc(C(F)(F)F)c3)c2)ccc2nc(NC(=O)C3CC3)sc12" this time NO

Same lookup for "Cc1ccc(-c2cc(/C=N/O)on2)cc1" , please. NO

And the next one, "CC(=O)/C=C/C1=C(c2ccsc2)c2ccccc2CC1" ? NO

Now this one: "C=C=[CH][Sn]([c]1ccccc1)([c]1ccccc1)[c]1ccccc1" NO

###

Kindly state TGI for each of the entries shown.
# Tested on: SK-OV-3 ovarian
# Experiment: NCI tumour cell line growth inhibition, 48 h
Where a SMILES comes first, the peptide text is derived from it. The star is where a group is joined. Boc = CC(C)(C)OC(=O)*

Requested field: TGI. Item: "Cc1ccc(-c2cc(/C=N/O)on2)cc1" > 100 µM

Also check "Cc1ccc(S(=O)(=O)NCCSS(=O)(=O)c2ccc(C)cc2)cc1" > 100 µM

Same again, this time with CCOC(=O)C(CC(C)C)NC(=O)C(Cc1ccccc1)NC(=O)CNC(=O)OC(C)(C)C (stereo not drawn) (Boc-Gly-Phe-Leu-OEt; configuration not given here) 50.9 µM

Repeat for the following compound: "COc1c2ccoc2c(S(=O)(=O)Nc2ccc(Cl)cc2)c2oc(C)cc(=O)c12" > 100 µM

Further, for "Cc1cc(C)c2[s+]snc2c1" ? > 100 µM

And "COc1ccc2[nH]c3c(C)c4cnccc4c(C)c3c2c1" ? > 10 µM

Okay, and O=S(Cc1cc2c(cc1Br)OCO2)c1ccccc1 (configuration not stated) ? > 100 µM

For O=C(Nc1cc(Cl)c(Cl)cc1Cl)C(=O)C(C(=O)c1ccc2ccccc2c1)C1OC(=O)c2ccccc21 (configuration not stated) then? > 100 µM

What do we get for "O=c1cc(-c2nc3ccccc3[nH]2)[nH]c2nc(-c3nc4ccccc4[nH]3)cc(-c3ccc(Cl)cc3)c12" ? 46.1 µM

Also need "CC(C)[O-].CC(C)[O-].[O-]c1cccc2cccnc12.[O-]c1cccc2cccnc12.[Ti+4]" , thanks. > 100 µM

Another compound to look at: COc1ccc(C2C(Cl)C(=O)N2NC(=O)c2ccc(N)cc2)cc1OC (configuration not stated) 33 µM

What do we get for "N#CC(c1ccccc1)(c1ccccc1)[C@@H](c1ccccc1)[C@H](Cc1ccccc1)NS(=O)(=O)c1ccccc1" ? > 100 µM

For "COc1ccc(-n2cc(-c3ccc(OC)c(OC)c3)nc2SCc2ccccc2)cc1Cl" then? > 100 µM

Record: CC(=O)OCC(=O)C1(O)C(C)CC2C3C=C(C)C4=Cc5c(cnn5-c5ccccc5)CC4(C)C3C(O)CC21C (configuration not stated) 5.71 µM

What about "Cc1cc(=O)[nH]c(CNC(=O)Cc2ccccc2)n1" ? > 100 µM

Another compound: "C[C@H](O)C(=O)SC[C@H](NC(=O)CC[C@@H](N)C(=O)O)C(=O)NCC(=O)O" > 100 µM

Also, "NC(=O)C(=CN1CC(=O)NC1=S)C(N)=O" please. > 100 µM

Could you do the same for "CCC[CH2][Sn]1([CH2]CCC)[O]C(=O)c2cc(C)ccc2[O]1" , please? 2.99 µM

Also "CN(CC#N)C(=O)Cc1ccc([N+](=O)[O-])cc1" , if possible. > 10 µM

How about this compound: "Cc1cc(=O)[nH]c2c3c(ccc12)OC(C)(C)C=C3" > 82.9 µM

Please do the same for "CCc1oc2ccc(OC)c3c2c1C=CC=C3" as well. > 100 µM

Query Cc1cccc(N=C2NC(=O)C(CC(=O)Nc3ccc(Cl)cc3C)S2)c1 (configuration not stated) next > 100 µM

Data provenance: PubChem BioAssay (NCI)
